Molecular target: Cytochrome P450 2D6 (Homo sapiens);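 note: CYP2D6 member of a cytochrome P450 panel assay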
Sequence (P10635 whole entry): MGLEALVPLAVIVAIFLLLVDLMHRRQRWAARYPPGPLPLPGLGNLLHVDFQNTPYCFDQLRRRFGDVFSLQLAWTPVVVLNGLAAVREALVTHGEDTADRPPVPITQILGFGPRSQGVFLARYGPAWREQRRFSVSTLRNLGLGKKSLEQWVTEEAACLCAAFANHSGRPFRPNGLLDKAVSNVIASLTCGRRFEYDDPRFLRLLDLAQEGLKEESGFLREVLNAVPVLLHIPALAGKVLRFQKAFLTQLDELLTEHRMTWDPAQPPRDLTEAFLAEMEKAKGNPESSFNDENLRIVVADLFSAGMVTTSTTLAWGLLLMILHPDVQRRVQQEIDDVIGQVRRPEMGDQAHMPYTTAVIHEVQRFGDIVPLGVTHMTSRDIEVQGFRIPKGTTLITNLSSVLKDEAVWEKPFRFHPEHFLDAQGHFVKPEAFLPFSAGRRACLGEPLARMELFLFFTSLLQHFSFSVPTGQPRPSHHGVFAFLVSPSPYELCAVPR

molecule	AC50
O=C(NCCN1CCN(Cc2ccccc2)CC1)C1c2ccccc2C(=O)N2CCc3ccccc3C12 (stereo not given)	11.2 µM (inconclusive)
CC1=C(C(=O)OCc2ccccc2)C(c2ccc([N+](=O)[O-])cc2)NC(=O)N1CCCCCC(=O)O (stereo not given)	20 µM (inconclusive)
Nc1ccc(CCN2CCN(c3cccc(C(F)(F)F)c3)CC2)cc1	12.6 µM (inconclusive)
O=C(CN1CCc2ccccc21)NC(=O)NCc1ccco1	14.1 µM (inconclusive)
CN(C)c1ccc(-c2nc3n(n2)C(c2cccnc2)C2=C(O)CC(C)(C)CC2=N3)cc1 (stereo not given)	17.8 µM (inconclusive)
CC(=O)N1CCC[C@@]2(CCN(Cc3ccccc3)C2)C1	15.8 µM (inconclusive)
COCC(=O)N1CCC2(CCCN(c3ncccn3)C2)CC1	20 µM (inconclusive)
CCOc1ccc(-n2c(SCC(=O)Nc3ccc(OC)cc3)nc3c(c2=O)SCC3)cc1	15.8 µM (inconclusive)
CC(C)NC(=O)N1CCCC2(CCN(C(=O)c3csnn3)CC2)C1	12.6 µM (inconclusive)
FC(F)(F)c1ccccc1-c1nc(NCc2cccs2)c2ccccc2n1	25.1 µM (inconclusive)

* * *

Biological target: Alkaline phosphatase, tissue-nonspecific isozyme (Homo sapiens, UniProt P05186)
Sequence (P05186 whole entry): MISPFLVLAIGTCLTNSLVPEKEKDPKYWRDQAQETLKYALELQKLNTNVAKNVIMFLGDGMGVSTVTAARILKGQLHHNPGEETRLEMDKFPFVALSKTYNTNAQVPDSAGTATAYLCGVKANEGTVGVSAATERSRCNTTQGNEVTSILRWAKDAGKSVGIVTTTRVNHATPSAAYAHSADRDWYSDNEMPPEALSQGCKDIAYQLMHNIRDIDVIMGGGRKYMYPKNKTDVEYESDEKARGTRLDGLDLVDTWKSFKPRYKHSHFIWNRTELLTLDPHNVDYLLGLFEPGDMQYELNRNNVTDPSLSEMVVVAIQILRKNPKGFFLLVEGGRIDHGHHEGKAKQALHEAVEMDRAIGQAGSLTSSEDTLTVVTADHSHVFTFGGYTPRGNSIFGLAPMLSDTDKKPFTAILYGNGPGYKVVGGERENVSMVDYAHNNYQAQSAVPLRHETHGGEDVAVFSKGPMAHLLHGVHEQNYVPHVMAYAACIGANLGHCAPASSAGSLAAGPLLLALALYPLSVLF
Test: human TNAP enzyme inhibitors, SAR follow-up, biochemical, luminescent, dose response (AID 1056)
Active and inactive are the calls of the source.
Labels: active, inactive

input smiles	class label
CCc1ccc(-c2ccc(-c3nc(N)nn3-c3ccccc3)cc2)cc1	inactive
O=C1c2c(Cl)c(Cl)c(Cl)c(Cl)c2C(=O)N1c1nnc[nH]1	inactive
Clc1ccc(/C=C/c2nc3ccccc3[nH]2)c(Cl)c1	active
CCc1nc(SCC(=O)c2ccc(O)cc2O)n[nH]1	inactive
COC(=O)c1cc(-c2ccc([N+](=O)[O-])cc2)[nH]n1	inactive

* * *

Measured IC50 by item
Molecular target: Calpain-2 catalytic subunit (Sus scrofa)
Sequence (P43367 whole entry): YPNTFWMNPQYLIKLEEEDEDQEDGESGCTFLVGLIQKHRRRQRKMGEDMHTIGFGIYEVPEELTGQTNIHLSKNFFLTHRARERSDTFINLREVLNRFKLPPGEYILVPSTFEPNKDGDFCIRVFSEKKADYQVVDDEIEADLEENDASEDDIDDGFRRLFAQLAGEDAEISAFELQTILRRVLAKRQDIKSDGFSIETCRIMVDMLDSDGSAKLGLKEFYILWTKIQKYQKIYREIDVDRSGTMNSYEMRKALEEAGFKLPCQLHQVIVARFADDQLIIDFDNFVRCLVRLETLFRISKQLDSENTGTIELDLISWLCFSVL
Experiment: pig calpain II inhibitor potency, dose response, biochemical, fluorogenic peptide substrate (AID 1420)
Assay type: functional
measure: IC50

molecule	experimental value
Cc1ccc2c(CC(=O)Nc3cccc(S(=O)(=O)N4CCOCC4)c3)coc2c1	25.9 µM (not active)
CCCc1ccc(Oc2c[nH]nc2-c2ccc(O)c(C)c2O)cc1	38.2 µM (not active)
Cc1cc2cc3c(cc2nc1SCC(=O)Nc1nc(C)c(C)s1)OCO3	24.1 µM (not active)
Cc1ccc([N+](=O)[O-])cc1NC(=O)C(Sc1ccccc1)c1ccccc1 (stereo not given)	> 50 µM (not active)
Cc1nc(SCC(=O)Nc2ccccc2)c2oc3ccccc3c2n1	> 50 µM (not active)

// data source = ChEMBL document CHEMBL1201862
